biological target: Cathepsin K (Homo sapiens, UniProt P43235); test: Cathepsin K inhibition assay (fluorogenic peptide substrate); selectivity ratio vs cathepsin S; type: biochemical; settings: ratio of cathepsin K inhibition constant to cathepsin S inhibition constant; Table II
Sequence (P43235 115-329, species assumed): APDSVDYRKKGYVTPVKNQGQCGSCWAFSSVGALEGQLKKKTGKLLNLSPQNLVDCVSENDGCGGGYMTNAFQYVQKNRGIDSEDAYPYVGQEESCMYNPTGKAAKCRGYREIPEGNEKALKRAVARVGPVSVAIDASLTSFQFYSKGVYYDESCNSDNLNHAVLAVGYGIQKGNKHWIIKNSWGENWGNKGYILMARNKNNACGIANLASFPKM
reported_property: Selectivity for Cat. S over Cat. K

> print(dat)
                                   compound            result
1  COc1ccc(NCCNC(=O)[C@H](CC2CCCCC2)NC(=O)c2cc(F)cc(C(F)(F)F)c2)cc1 [Compound 165]  +++ (+++, >1000)
2  COc1ccc(NCCNC(=O)[C@H](Cc2ccc(-c3cccc(N)c3)cc2)NC(=O)c2cccc(C)c2)cc1 [Compound 280]     ++ (++, >100)
3  O=C(N[C@@H](CC1CCCCC1)C(=O)NCCNc1ccc(OC(F)F)cc1)c1ccc(-c2cccc(C(F)(F)F)c2)o1 [Compound 10]  +++ (+++, >1000)
4  O=C(Cn1cnnn1)N[C@@H](CC1CCCCC1)C(=O)NCCNc1ccc(OC(F)(F)F)cc1 [Compound 46]     ++ (++, >100)
5  COc1ccc(NCCNC(=O)C(NC(=O)c2cccc(C)c2)c2cccc(Cl)c2Cl)cc1 (stereo not drawn) [Compound 223]     ++ (++, >100)
6  CC(C(=O)N[C@@H](CC1CCCCC1)C(=O)NCCNc1ccc(F)cc1)c1ccc(Cl)cc1 (stereo partly drawn) [Compound 312]     ++ (++, >100)
7  N#Cc1cccc(C(=O)N[C@@H](CC2CCCCC2)C(=O)NCCNc2ccc(F)cc2)c1 [Compound 321]     ++ (++, >100)
8  COc1ccc(NCCNC(=O)[C@H](CC2CCCCC2)NC(=O)c2ccc(F)c(C(F)(F)F)c2)cc1 [Compound 149]  +++ (+++, >1000)
